Target: T1, human ACVR2A (human, UniProt P27037 20-135, limits assumed); further: test concentration or dose not given here
T1 construct: coated antigen of the initial ELISA; also called activin receptor, type II A
T1 sequence (P27037 20-135 limits assumed): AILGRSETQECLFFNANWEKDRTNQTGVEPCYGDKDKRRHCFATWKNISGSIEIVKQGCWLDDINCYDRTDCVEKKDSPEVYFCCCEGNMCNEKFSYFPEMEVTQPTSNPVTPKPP
Test: ELISA
# maps each entry to its optical density
A number alone suffices; assume OD.

Worked set:
367_C07 (antibody, V domains shown, Group III) VH: EVQLLESGGGLVQPGGSLRLSCAASGFTFSSYSMNWVRQAPGKGLEWVSSINYNSGYTGYADSVKGRFTISRDNSKNTLYLQMNSLRAEDTAVYYCARGANWHDTHLDYWGQGTLVTVSS VL: DIQMTQSPSSLSASVGDRVTITCRASQSILTYVNWYQQKPGKAPKLLIYAATSRASGVPSRFSGSGSGTDFTLTISSLQPEDFATYYCQQSYNLPLTFGGGTKVEIK : 2.47
375_E10 (antibody, V domains shown, Group III) VH: EVQLLESGGGLVQPGGSLRLSCAASGFTFSSYSMNWVRQAPGKGLEWVSGINYNGGYTSYADSVKGRFTISRDNSKNTLYLQMNSLRAEDTAVYYCARGANWHDTALDYWGQGTLVTVSS VL: DIQMTQSPSSLSASVGDRVTITCRASQSILSYLNWYQQKPGKAPKLVIYAATSRASGVPSRFSGSGSGTDFTLTISSLQPEDFATYYCQQSYDNPLTFGGGTKVEIK : 3.69
370_H02 (antibody, V domains shown, Group III) VH: EVQLLESGGGLVQPGGSLRLSCAASGFTFDSYSMNWVRQAPGKGLEWVSGINYNSGYTSYADSVKGRFTISRDNSKNTLYLQMNSLRAEDTAVYYCARGANWHDTHLDYWGQGTLVTVSS VL: DIQMTQSPSSLSASVGDRVTITCRASQSILTYLNWYQQKPGKAPKLLIYAATSRASGVPSRFSGSGSGTDFTLTISSLQPEDFATYYCQQSYESPLTFGGGTKVEIK : 3.3
371_H10 (antibody, V domains shown, Group III) VH: EVQLLESGGGLVQPGGSLRLSCAASGFTFSSYSMNWVRQAPGKGLEWVAGINYNSGYKSYADSVKGRFTISRDNSKNTLYLQMNSLRAEDTAVYYCARGANWHDTHLDYWGQGTLVTVSS VL: DIQMTQSPSSLSASVGDRVTITCRASQSISTYLNWYQQKPGKAPKLLIYAATSRHSGVPSRFSGSGSGTDFTLTISSLQPEDFATYYCQQSYENPLTFGGGTKVEIK : 2.19

Below: the item to evaluate.
Request: Query: optical density; subject: 371_H05 (antibody, V domains shown, Group III) VH: EVQLLESGGGLVQPGGSLRLSCAASGFTFSSYGMNWVRQAPGKGLEWVSGINYNSGYKSYADSVKGRFTISRDNSKNTLYLQMNSLRAEDTAVYYCARGANWHDTALDYWGQGTLVTVSS VL: DIQMTQSPSSLSASVGDRVTITCRASQSIISYLNWYQQKPGKAPKLLIYAATSLASGVPSRFSGSGSGTDFTLTISSLQPEDFATYYCQQSYSLPLTFGGGTKVEIK
Result: 1.2
